# Tested on: MDA-MB-435 melanoma
# Assay Notes: NCI-60 one-dose screen, 48 h (100 = growth as untreated, 0 = no growth, -100 = all killed)
# Measurement Setup: 10 µM unless noted
The panel holds about 83,000 compounds, 20% with a hit somewhere; the sample as a whole holds those more often.
Reported Metric: growth (%)
One number for each entry, in %.

Provide reported growth for each item, in the same order as listed.
1. COc1cc2c(O)n(CCCn3ccnc3)c3c4cnc5cccc(c(=O)c3c2cc1OC)c54
2. Cc1cc2c(F)c(Oc3ncnc(Nc4ccc(N5C[C@@H](C)N[C@@H](C)C5)cc4)c3C#N)cc(F)c2[nH]1
3. OC(CBr)c1ccnc2ccccc12 (centres undefined)
4. CCCc1nc2ccccn2c1Nc1ccc(C(=O)NO)cc1

Given back:
51
19.9
100
90.2

// for each molecule below, give its growth
1. O=C1Nc2ccc(Cl)cc2/C1=N/N=C/c1c[nH]c2ccccc12
2. CCN(CC)CCCC(C)NCc1ccccc1 (centres undefined)
3. Cc1nc(Nc2ccc(S(=O)(=O)Nc3cc(C)on3)cc2)c2ccccc2n1

Given back:
[87, 100, 101]

Parameters: items (list). Returns: growth for each item.
1. Cc1nc(Nc2ccc(NC(=S)Nc3ccccc3)cc2)c2ccccc2n1
2. NC(=S)c1csc(CCNC(=O)c2ccccc2)n1
3. CC(=O)Nc1ccc2c(c1)Cc1c(F)cccc1-2

Given back:
1: 112; 2: 110; 3: 107

* * *

Kindly supply the reported growth values for the records listed here.
# Test system: SK-MEL-28 melanoma
# Assay Notes: NCI-60 one-dose screen, 48 h (100 = growth as untreated, 0 = no growth, -100 = all killed)
# Measurement Setup: 10 µM unless noted
# Description: Growth inhibition of the SK-MEL-28 human tumor cell line is measured as a screen for anti-cancer activity. Cells are grown in 96 well plates and exposed to the test compound for 48 hours. Compounds are tested at a single concentration, which is 10^-5 M for most compounds. The reported endpoint is percent growth (GI% or GIPRCNT), where numbers from 0 - 100% represent growth inhibition, and numbers from -100% - 0 represent cell death. For example, a value of 40 represents 60% growth inhibition. […]
Compounds without any hit were thinned out: in the full panel of roughly 83,000, 20% have a hit. The source made the active and inactive calls. The calls were made as follows: active = growth percent below 10; inactive = the rest.

Solved entries:
- Compound: "N=C(N)c1ccc(-c2ccc(-c3ccc(Cl)cc3Cl)o2)cc1"
  growth: "46% (inactive)"
- Compound: "CCOC(=O)N1CCc2c(sc3c2C(=O)N[C@H](c2ccc(OC)cc2)N3)C1"
  growth: "109% (inactive)"
- Compound: "Cn1nnnc1-c1ccc(N)cc1"
  growth: "103% (inactive)"

I'm hoping you can list growth for every compound here, please.
1. CCN(CC)CCCC(C)NCc1ccccc1 (stereo not drawn)
2. c1ccc([P+](CCCc2n(Cc3ccc4ccccc4c3)c3ccccc3[n+]2Cc2ccc3ccccc3c2)(c2ccccc2)c2ccccc2)cc1
3. COc1ccc(-c2nc3sc4c(c3c(=O)[nH]2)CCCC4)c2ccccc12

Given back:
102% (inactive)
37.1% (inactive)
-5.17% (active)

* * *

Would you kindly list growth for each of these compounds?
# Tested on: UACC-257 melanoma
# Assay Notes: NCI-60 one-dose screen, 48 h (100 = growth as untreated, 0 = no growth, -100 = all killed)
# Measurement Setup: 10 µM unless noted
About 83,000 compounds went through this panel and 20% of them were active in at least one assay; those are over-represented in the sample as a whole.
Numbers only, in %.

- Chem Smiles: "Cc1ccc(/C=C(\\C#N)n2nnc3cc(Cl)c(Cl)cc32)cc1"
  Reported Metric: "growth"
  Unit: "%"
  Experimental Result: 50.3
- Chem Smiles: "C=C1C(=O)O[C@H]2[C@H]1CC/C(C(=O)NCCCCCCCCNC(=O)/C1=C/CC[C@@]3(C)O[C@H]3[C@H]3OC(=O)C(=C)[C@@H]3CC1)=C\\CC[C@@]1(C)O[C@@H]21"
  Reported Metric: "growth"
  Unit: "%"
  Experimental Result: 61.8
- Chem Smiles: "CCOC(=O)c1c(C)nc2c(c1N)/C(=C/c1ccc(OC)cc1)C(=O)N2Cc1ccc(F)cc1"
  Reported Metric: "growth"
  Unit: "%"
  Experimental Result: -52.7

Moving on to another compound below.
// O=C(CCCCCCCn1cc(-c2cccnc2)nn1)Nc1ccccc1-c1ccccc1 : growth value = 65.6
